Ref: ChEMBL document CHEMBL3817788

Acetylcholinesterase (Homo sapiens) measurements of IC50, listed per entry.
Sequence (P22303 whole entry): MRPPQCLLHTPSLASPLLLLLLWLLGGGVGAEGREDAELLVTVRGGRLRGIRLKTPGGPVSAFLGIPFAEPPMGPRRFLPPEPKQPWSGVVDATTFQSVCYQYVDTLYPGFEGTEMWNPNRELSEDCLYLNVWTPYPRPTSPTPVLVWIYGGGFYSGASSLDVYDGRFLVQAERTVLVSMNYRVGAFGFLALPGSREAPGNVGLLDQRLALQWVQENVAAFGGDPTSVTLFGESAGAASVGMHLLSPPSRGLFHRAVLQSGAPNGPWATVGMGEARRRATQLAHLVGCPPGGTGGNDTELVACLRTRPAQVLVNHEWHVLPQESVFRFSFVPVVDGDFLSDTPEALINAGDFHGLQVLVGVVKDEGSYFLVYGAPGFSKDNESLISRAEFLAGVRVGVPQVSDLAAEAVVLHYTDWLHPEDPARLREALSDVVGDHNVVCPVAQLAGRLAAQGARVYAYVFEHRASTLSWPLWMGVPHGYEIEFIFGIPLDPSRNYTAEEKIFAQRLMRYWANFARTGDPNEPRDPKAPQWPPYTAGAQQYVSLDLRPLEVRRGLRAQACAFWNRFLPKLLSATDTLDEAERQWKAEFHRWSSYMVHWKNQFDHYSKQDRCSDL
I only need the number, in µM, no unit after it.

{"compound": "O=C(CCCCCCCCc1ccc(O)c(O)c1)c1c(O)ccc(C(CCCCCCCCc2ccc(O)c(O)c2)c2c(O)cccc2O)c1O (stereo unspecified)", "tested_system": "Acetylcholinesterase (Homo sapiens)", "IC50 (µM)": 12.7}
{"compound": "O=C(CCCCCCCCc1ccccc1)c1c(O)cccc1O", "tested_system": "Acetylcholinesterase (Homo sapiens)", "IC50 (µM)": 1.31}
{"compound": "O=C(CCCCCCCCc1ccc(O)cc1)c1c(O)cc(O)cc1O", "tested_system": "Acetylcholinesterase (Homo sapiens)", "IC50 (µM)": 6.44}
{"compound": "O=C(CCCCCCCCc1ccc(O)cc1)c1c(O)cccc1O", "tested_system": "Acetylcholinesterase (Homo sapiens)", "IC50 (µM)": 1.84}
{"compound": "O=C(CCCCCCCCc1ccc(O)c(O)c1)c1c(O)cccc1O", "tested_system": "Acetylcholinesterase (Homo sapiens)", "IC50 (µM)": 1.94}

For the next question, use this compound.
QUERY: Would you please give the reported IC50 of O=C(CCCCCCCCc1ccc(O)c(O)c1)c1c(O)ccc(C(CCCCCCCCc2ccc(O)cc2)c2c(O)cccc2O)c1O (stereo unspecified) with Acetylcholinesterase (Homo sapiens)?
RESULT: 30.7

---

Target: Acetylcholinesterase (Homo sapiens)
experimental_readout: Ki

{"molecule": "O=C(CCCCCCCCc1ccc(O)c(O)c1)c1c(O)cccc1O [MALABARICONE C]", "experimental_readout": "Ki", "result": "5.86 µM"}

For the next question, use this molecule.
QUERY: Supply recorded Ki for O=C(CCCCCCCCc1ccc(O)cc1)c1c(O)cccc1O [MALABARICONE B] here.
RESULT: 4.33 µM

---

Documented inhibition across a set of molecules
Molecular target: Cholinesterase (Equus caballus)
Sequence (P81908 whole entry): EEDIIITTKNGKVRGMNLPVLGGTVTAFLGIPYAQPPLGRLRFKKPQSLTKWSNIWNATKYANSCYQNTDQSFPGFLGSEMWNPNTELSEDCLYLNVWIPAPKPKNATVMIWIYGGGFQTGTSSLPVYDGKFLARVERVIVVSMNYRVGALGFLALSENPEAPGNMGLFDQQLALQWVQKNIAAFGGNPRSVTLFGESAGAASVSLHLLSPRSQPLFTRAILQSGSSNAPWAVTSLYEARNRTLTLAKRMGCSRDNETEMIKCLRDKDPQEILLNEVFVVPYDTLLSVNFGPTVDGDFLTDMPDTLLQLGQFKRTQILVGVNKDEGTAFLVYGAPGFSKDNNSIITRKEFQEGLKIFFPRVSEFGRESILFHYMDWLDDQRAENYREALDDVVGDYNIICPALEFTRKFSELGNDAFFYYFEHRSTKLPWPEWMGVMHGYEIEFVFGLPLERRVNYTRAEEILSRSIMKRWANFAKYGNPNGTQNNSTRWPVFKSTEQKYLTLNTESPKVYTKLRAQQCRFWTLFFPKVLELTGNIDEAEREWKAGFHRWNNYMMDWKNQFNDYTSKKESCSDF
Experiment: Inhibition of equine serum BChE at 100 ug/ml using S-butyrylthiocholine chloride as substrate incubated for 30 mins by Ellman's microplate assay
I only need the number, in %, no unit after it.

{"molecule": "O=C(CCCCCCCCc1ccc(O)c(O)c1)c1c(O)ccc(C(CCCCCCCCc2ccc(O)cc2)c2c(O)cccc2O)c1O (configuration not stated)", "inhibition (%)": 86.7}
{"molecule": "O=C(CCCCCCCCc1ccc(O)c(O)c1)c1c(O)cccc1O", "inhibition (%)": 94.1}
{"molecule": "O=C(O)CCCCCCCCc1ccc(O)cc1", "inhibition (%)": 49}
{"molecule": "O=C(CCCCCCCCc1ccc(O)cc1)c1c(O)cc(O)cc1O", "inhibition (%)": 86.8}
{"molecule": "O=C(CCCCCCCCc1ccccc1)c1c(O)cccc1O", "inhibition (%)": 69.5}

QUERY: Supply recorded inhibition for O=C(CCCCCCCCc1ccc(O)c(O)c1)c1c(O)ccc(C(CCCCCCCCc2ccc(O)c(O)c2)c2c(O)cccc2O)c1O (configuration not stated) here.
RESULT: 81.1

QUERY: Supply recorded inhibition for O=C(CCCCCCCCc1ccc(O)cc1)c1c(O)cccc1O here.
RESULT: 87.3

---

Molecular target: UniProt P81908
Assay: Inhibition of equine serum BChE using S-butyrylthiocholine chloride as substrate incubated for 30 mins by Ellman's microplate assay
Documented log10 of IC50 across a set of molecules
All values: log10 IC50 [µM].

{"molecule": "O=C(CCCCCCCCc1ccc(O)c(O)c1)c1c(O)cccc1O", "log10 of IC50": 0.45}
{"molecule": "O=C(CCCCCCCCc1ccc(O)cc1)c1c(O)cc(O)cc1O", "log10 of IC50": 0.82}
{"molecule": "O=C(CCCCCCCCc1ccc(O)c(O)c1)c1c(O)ccc(C(CCCCCCCCc2ccc(O)c(O)c2)c2c(O)cccc2O)c1O (stereo unspecified)", "log10 of IC50": 1.02}
{"molecule": "O=C(CCCCCCCCc1ccc(O)cc1)c1c(O)cccc1O", "log10 of IC50": 0.25}
{"molecule": "O=C(CCCCCCCCc1ccccc1)c1c(O)cccc1O", "log10 of IC50": 1.59}

For the next question, use this molecule.
QUERY: Supply recorded log10 of IC50 for O=C(CCCCCCCCc1ccc(O)c(O)c1)c1c(O)ccc(C(CCCCCCCCc2ccc(O)cc2)c2c(O)cccc2O)c1O (stereo unspecified) here.
RESULT: 1.10
